Hey, just so you know, these numbers are from patent US5210024A.

# SYSTEM NAME: M-N^α -AT (methionine N^α -acetyltransferase) (Saccharomyces cerevisiae, UniProt Q06504)
# Construct: endogenous in cells; host or cells: Saccharomyces cerevisiae aaa1 (AAA1-null) mutant
# Sequence (Q06504 1-195): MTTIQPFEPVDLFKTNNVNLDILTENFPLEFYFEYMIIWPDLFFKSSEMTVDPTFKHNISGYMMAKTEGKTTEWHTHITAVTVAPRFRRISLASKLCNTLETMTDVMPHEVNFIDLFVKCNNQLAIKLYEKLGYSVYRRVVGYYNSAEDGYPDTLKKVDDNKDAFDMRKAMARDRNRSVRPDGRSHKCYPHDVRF
# Sequence (Q12387 2-796 partner limits assumed): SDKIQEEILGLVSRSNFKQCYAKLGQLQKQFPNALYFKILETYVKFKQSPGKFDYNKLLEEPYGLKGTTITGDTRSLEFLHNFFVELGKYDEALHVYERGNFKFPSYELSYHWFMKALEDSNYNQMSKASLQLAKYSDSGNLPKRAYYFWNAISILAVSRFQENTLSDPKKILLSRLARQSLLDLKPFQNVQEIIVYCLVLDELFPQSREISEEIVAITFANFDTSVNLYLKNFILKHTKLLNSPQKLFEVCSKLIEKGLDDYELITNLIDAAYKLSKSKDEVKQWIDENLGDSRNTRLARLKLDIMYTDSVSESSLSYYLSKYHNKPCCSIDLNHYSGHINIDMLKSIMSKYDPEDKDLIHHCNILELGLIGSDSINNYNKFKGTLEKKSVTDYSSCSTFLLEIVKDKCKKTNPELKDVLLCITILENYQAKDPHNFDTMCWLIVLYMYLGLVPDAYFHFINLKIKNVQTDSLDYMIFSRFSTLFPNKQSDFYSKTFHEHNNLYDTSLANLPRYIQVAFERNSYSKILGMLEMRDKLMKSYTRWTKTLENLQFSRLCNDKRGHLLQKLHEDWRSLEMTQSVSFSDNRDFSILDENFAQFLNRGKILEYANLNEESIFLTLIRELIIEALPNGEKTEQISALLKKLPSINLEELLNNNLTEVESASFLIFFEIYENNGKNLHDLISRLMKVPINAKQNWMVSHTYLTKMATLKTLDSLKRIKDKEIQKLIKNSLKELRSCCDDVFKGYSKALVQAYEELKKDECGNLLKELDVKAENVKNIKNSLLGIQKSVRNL
# EXPERIMENTAL PROTOCOL: N^α-acetylation of synthetic peptides by methionine N^α-acetyltransferase
# Format: biochemical
# Set-up: concentration or dose not given beside the values
# CONDITION INFO: Table 3: relative activity for N^α-acetylation of synthetic peptide substrate; influence of the penultimate amino terminal residue
# Method: Aliquots of the lysate were added to 1.5 ml Eppendorf tubes containing a reaction mixture of 50 mM HEPES, pH 7.4, 150 mM KCl, 1 mM DTT, 25 μM[^3 H]acetyl coenzyme A (0.5 μCi) and 50 μM ACTH (1-24) with an adjusted final volume of 100 μl. The assay mixture was incubated at 30 C for 30 min. The reaction was stopped by adding 0.5 M acetic acid and chilled in an ice bath. […] The radioactivity in the control represented acetylation of endogenous compounds is subtracted from each sample determination. […]
Activity (%) (mean activity ± S.D.) M-N^α -AT overview
Give the value in % but do not write % after it.

Worked examples, 3 substances total:
SHPETQKGVIFYESHGKLEYKDIP (SHPETQKGVIFYESHGKLEYKDIP) ... 0
SDPETQKGVIFYESHGKLEYKDIP (SDPETQKGVIFYESHGKLEYKDIP) ... 0
SMPETQKGVIFYESHGKLEYKDIP (SMPETQKGVIFYESHGKLEYKDIP) ... 0

Proceed to the following item.
Req: Requested field: Activity (%) (mean activity ± S.D.) M-N^α -AT. Item: SSPETQKGVIFYESHGKLEYKDIP (SSPETQKGVIFYESHGKLEYKDIP)
Resp: 0
